- Tested on: DMS-273
- Assay Summary: NCI tumour cell line growth inhibition, 48 h
Activity calls are given as the source filed them. No stated cut-off is given here; in the data, active = GI50 up to about 1.1 µM and inactive = higher.
Assay Endpoint: GI50

Please review the following examples before continuing.
INSERT INTO measurements (compound, assay_endpoint, data_value) VALUES
  ('COc1cc(/C=C(\NC(=O)c2ccccc2)c2nc3ccc4c(c3[nH]2)C(=O)c2ccccc2C4=O)cc(OC)c1OC', 'GI50', '40.7 µM (inactive)'),
  ('COc1cccc(N2C(=O)C3C4C=C5c6ccccc6N(c6ccccc6)C5(C3C2=O)[C@H]2C(=O)N(c3cccc(OC)c3)C(=O)[C@@H]42)c1 (some centres not stated)', 'GI50', '> 100 µM (inactive)'),
  ('C[C@]12CCC(=O)C=C1CC[C@@H]1C2CC[C@]2(C)c3nn(-c4ccccc4)nc3CC12 (some centres not stated)', 'GI50', '> 100 µM (inactive)'),
  ('Nc1ccccc1S(=O)(=O)c1ccccc1', 'GI50', '> 100 µM (inactive)'),
  ('CC(CNCCCNCCNCCCNCO)[N+](=O)[O-] (configuration not stated)', 'GI50', '16.5 µM (inactive)');

Field GI50 (entry Cc1ccc(-n2c(C)nc3c2C(=O)c2ccccc2C3=O)cc1 ) reads 9.86 µM (inactive)

Field GI50 (entry N#Cc1ccc(C2SCc3nc4ccccc4n32)cc1 (configuration not stated) ) reads > 100 µM (inactive)
